STUDY_SYSTEM: T1, Brat-NHL (Drosophila melanogaster, UniProt Q8MQJ9 756-1037)
T1 sequence: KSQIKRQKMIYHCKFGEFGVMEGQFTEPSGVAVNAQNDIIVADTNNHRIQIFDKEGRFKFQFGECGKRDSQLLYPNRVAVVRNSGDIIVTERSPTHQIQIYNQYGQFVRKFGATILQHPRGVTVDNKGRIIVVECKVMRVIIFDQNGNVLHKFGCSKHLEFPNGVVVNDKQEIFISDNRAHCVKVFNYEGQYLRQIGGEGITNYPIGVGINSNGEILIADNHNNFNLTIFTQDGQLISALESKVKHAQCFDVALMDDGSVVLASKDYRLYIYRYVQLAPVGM
ASSAY_INFO: ITC
METRIC: Kd (nM)
Just the number please, in nM, no unit attached.

INSERT INTO assay_data (binder, unit_label, numeric_value) VALUES
  ('UUGUUGUCGAAAAUUGUACAUAA (structured_RNA) [NRE2 (23-mer)]', 'nM', 1200);

Read the next record carefully.
Ask | State the recorded Kd for this entry: UUGUUG (ssRNA) [BoxA]
Reply | 800
